# Lookup of reported interaction score keyed by entry
Molecular target: T1, 4H3974-bH
T1 chain: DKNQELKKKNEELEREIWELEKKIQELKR
Assay: two-hybrid library CCNG1;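 further: natural log of median RNA to DNA barcode read ratio; higher means stronger binding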

| Binder | interaction score |
| --- | --- |
| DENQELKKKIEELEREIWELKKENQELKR [4H1804-bH] | -0.359 |
| DKNQELKKEIEELERKIWELKKKNQELER [4H3631-bH] | 0.292 |
| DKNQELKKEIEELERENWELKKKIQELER [4H3613-bH] | -1.15 |
| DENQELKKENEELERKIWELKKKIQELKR [4H1710-bH] | 0.887 |

Every entry's value here was drawn from paper PMC10397247.
